Just for reference, PubChem BioAssay AID588342 is where these values come from.

System Under Test: Luciferin 4-monooxygenase (Photinus pyralis)
Assay: qHTS profiling assay for firefly luciferase inhibitor/activator using purifed enzyme and Km concentrations of substrates (counterscreen for miR-21 project); further: nearly all actives have a fitted effect of over 55% in size
Condition Set: purified FLuc, luminescence inhibition; series mostly up to 57.5 µM
Out of some 360,000 compounds screened, about 25,000 (6.9%) were called active. Another 9% or so got no clear call; they are omitted. The call rests on the fitted dose curve; in most records, active means well fitted inhibition curve with a large enough effect; inconclusive means small, poorly fitted or top-dose-only effect; inactive means flat fitted curve, though single readings scatter. For the sample, actives were picked, then their nearest neighbours and some compounds at random.
Please state which outcome applies, choosing from active, inactive

CN(Cc1cccnc1)C(=O)c1cc(COc2ccc3ncccc3c2)on1 | inactive
Cc1ccc(C(=O)OCC(=O)NCc2ccc3c(c2)OCO3)s1 | inactive
COc1ccc(/C=C/C(=O)Nc2ccc(C34CC5CC(CC(O)(C5)C3)C4)cc2)cc1OC | active
Cc1ccc(OCc2cc(C(=O)N(C)CCc3ccccc3)no2)cc1C | active
CCN(CC)c1ccc(C(=O)Nn2c(C)nc3ccccc3c2=O)cc1 | inactive

Call for entry CC(=O)Nc1ccc(NC(=O)C2CCCN(S(=O)(=O)c3ccc4c(c3)CCCC(=O)N4)C2)cc1 (configuration not stated) :
inactive

Next: `Cc1ccnc(SCC(N)=O)n1`
inactive

Next: `COc1ccc(NS(=O)(=O)c2cc(NC(=O)/C=C/c3cc(OC)c(OC)c(OC)c3)ccc2N2CCCCC2)cc1`
inactive

Next: `O=C1CC[C@H](O)CCN1[C@H](CSc1ccc(Br)cc1)Cc1ccccc1`
inactive

Next: `CCn1ccnc1CN(C)C(=O)c1cc(COc2ccc(-n3cncn3)cc2)on1`
inactive

Next: `COc1ccc(S(=O)(=O)N(C)CC(=O)Nc2ccc3c(c2)OCCO3)cc1OC`
inactive

Next: `COc1cccc(/C=C/C(=O)Nc2ccc3c(c2)OCCO3)c1`
active

====

System Under Test: Luciferin 4-monooxygenase (Photinus pyralis)
Assay: qHTS profiling assay for firefly luciferase inhibitor/activator using purifed enzyme and Km concentrations of substrates (counterscreen for miR-21 project); further: nearly all actives have a fitted effect of over 55% in size
Condition Set: purified FLuc, luminescence inhibition; series mostly up to 57.5 µM
Hit rate of the full screen: of about 360,000 compounds, about 25,000 (6.9%) were called active. Another 9% or so got no clear call; they are omitted. The call rests on the fitted dose curve; in most records, active means well fitted inhibition curve with a large enough effect; inconclusive means small, poorly fitted or top-dose-only effect; inactive means flat fitted curve, though single readings scatter. This excerpt belongs to a sample that is enriched for actives.
Please state which outcome applies, choosing from active, inactive

Look over these answered cases.
Cc1ccc(CN(C(=O)c2ccccc2[N+](=O)[O-])c2ccccn2)cc1 | inactive
Cc1cccc(NC(=O)/C=C/c2ccc3c(c2)OCO3)n1 | active
Cc1cccc(NC(=O)Nc2ccc3c(c2)OCO3)n1 | active

Field: next compound
Call for entry `O=C(Nc1ccc(NC(=O)c2ccc3c(c2)OCO3)cc1)c1cccc(Cl)c1` :
inactive

====

System Under Test: Luciferin 4-monooxygenase (Photinus pyralis) (UniProt P08659)
Sequence (P08659 whole entry, looked up): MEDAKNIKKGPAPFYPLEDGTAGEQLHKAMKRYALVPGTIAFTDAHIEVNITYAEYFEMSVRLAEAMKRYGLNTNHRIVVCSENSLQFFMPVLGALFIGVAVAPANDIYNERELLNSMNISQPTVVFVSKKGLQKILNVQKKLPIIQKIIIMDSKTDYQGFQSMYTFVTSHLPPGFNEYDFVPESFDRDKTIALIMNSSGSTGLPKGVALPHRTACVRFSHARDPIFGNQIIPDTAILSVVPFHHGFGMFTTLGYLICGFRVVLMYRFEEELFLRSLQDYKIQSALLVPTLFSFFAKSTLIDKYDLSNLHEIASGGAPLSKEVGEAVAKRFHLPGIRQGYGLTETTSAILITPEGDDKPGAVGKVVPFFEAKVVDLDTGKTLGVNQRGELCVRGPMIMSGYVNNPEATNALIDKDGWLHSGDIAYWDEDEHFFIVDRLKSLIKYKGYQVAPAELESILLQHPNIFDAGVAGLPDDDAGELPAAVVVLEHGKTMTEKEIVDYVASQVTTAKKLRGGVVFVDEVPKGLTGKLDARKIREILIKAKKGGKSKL
Assay: qHTS profiling assay for firefly luciferase inhibitor/activator using purifed enzyme and Km concentrations of substrates (counterscreen for miR-21 project); further: nearly all actives have a fitted effect of over 55% in size
Condition Set: purified FLuc, luminescence inhibition; series mostly up to 57.5 µM
Among all 360,000 compounds or so, about 25,000 (6.9%) were called active. Roughly 9% stayed inconclusive and do not appear here. Calls follow the shape of the dose curve; as a rule, active = well fitted inhibition curve with a large enough effect; inconclusive = small, poorly fitted or top-dose-only effect; inactive = flat fitted curve, though single readings scatter. This is one part of a sample in which actives are shown more often than they occur.
Please state which outcome applies, choosing from True for active, False for inactive

Look over these answered cases.
Cc1cc(-c2n[nH]c(=S)n2/N=C/C(Br)=C/c2ccccc2)n[nH]1 | False
Cc1cc(C(=O)OCC(=O)Nc2ccccc2Cl)c(C)o1 | False

Call for entry `CC(=O)N/N=C/c1cc2c(cc1[N+](=O)[O-])OCO2` :
False

Next: `CC(=O)c1ccc(N2CCN(CC(=O)Nc3ccccc3N3CCOCC3)CC2)cc1`
False

Next: `Nc1c(Cl)cc(S(N)(=O)=O)cc1S(N)(=O)=O`
False

Next: `CC(=C/c1ccccc1)/C=N/NC(=O)c1cc(C)oc1C`
True

====

System Under Test: Luciferin 4-monooxygenase (Photinus pyralis) (UniProt P08659)
Assay: qHTS profiling assay for firefly luciferase inhibitor/activator using purifed enzyme and Km concentrations of substrates (counterscreen for miR-21 project); further: nearly all actives have a fitted effect of over 55% in size
Condition Set: purified FLuc, luminescence inhibition; series mostly up to 57.5 µM
Screen size: about 360,000 compounds; about 25,000 (6.9%) were called active. Another 9% or so got no clear call; they are omitted. Calls follow the shape of the dose curve; as a rule, active = well fitted inhibition curve with a large enough effect; inconclusive = small, poorly fitted or top-dose-only effect; inactive = flat fitted curve, though single readings scatter. Shown is part of a subset that was picked to be rich in actives.
Please state which outcome applies, choosing from active, inactive

Look over these answered cases.
CC(C)N(C(=O)CSc1nnc(NC2CC2)s1)c1ccccc1 | inactive
COc1ccc2c(-c3ccccc3)cc(SCC(=O)N(C)C3CCS(=O)(=O)C3)nc2c1 (stereo not given) | inactive
CN(C(=O)CSc1nnc(-c2ccc(C(C)(C)C)cc2)n1C)C1CCS(=O)(=O)C1 (stereo not given) | active
CCn1c(SCC(=O)N(C)C2CCS(=O)(=O)C2)nnc1-c1cccs1 (stereo not given) | inactive

Field: next compound
Call for entry `Cc1ccc(NC(=O)CN2c3ccccc3S(=O)(=O)c3ccccc32)cc1F` :
inactive

====

System Under Test: Luciferin 4-monooxygenase (Photinus pyralis) (UniProt P08659)
Assay: qHTS profiling assay for firefly luciferase inhibitor/activator using purifed enzyme and Km concentrations of substrates (counterscreen for miR-21 project); further: nearly all actives have a fitted effect of over 55% in size
Condition Set: purified FLuc, luminescence inhibition; series mostly up to 57.5 µM
Text: MLPCN Grant: 1 R21 NS059478-01 (miR-21 grant) Assay Provider: NCGC NCGC Assay Overview: Firefly (Photinus pyralis) luciferase is one of the most commonly used transcriptional reporters for a number of reasons. […] Although light produced in a bioluminescence reaction is of lower intensity than that produced during fluorescence emission, this is offset by little to no background light inherent to luminescent assays. […]
Among all 360,000 compounds or so, about 25,000 (6.9%) were called active. Another 9% or so got no clear call; they are omitted. The call rests on the fitted dose curve; in most records, active means well fitted inhibition curve with a large enough effect; inconclusive means small, poorly fitted or top-dose-only effect; inactive means flat fitted curve, though single readings scatter. The list comes from a sample in which actives are over-represented; it also holds close analogues and randomly drawn compounds.
Please state which outcome applies, choosing from T (active), F (inactive)

Look over these answered cases.
COc1ccc(NC(=O)c2cn(-c3ccccc3)nc2SC)cc1 | T
Cc1ccc(-c2nn(-c3ccccc3)cc2C(=O)NCCCN2CCCC2=O)cc1 | T
Cc1nc(-c2ccc(Cl)cc2)sc1C1(C)CC(c2ccccc2F)=NO1 (configuration not stated) | T

Call for entry `Cc1cc(C)nc(SCc2ccccc2C#N)n1` :
F

Next: `O=C(CSc1nnc(N2CCOCC2)n1-c1cccc(F)c1)N1CCN(c2ccccn2)CC1`
F

Next: `CSc1nc(-c2ccccc2Cl)nc2c1Cc1c(CO)cnc(C)c1O2`
F

Next: `Cc1ccc(CN2CCC(CNC(=O)c3cnn(-c4ccc(C)cc4)c3C3CCN(C(=O)OC(C)(C)C)CC3)CC2)cc1`
F

Next: CCCOC(=O)C1=C(C)NC2=C(C(=O)C(C(=O)OC)C(C)C2)C1c1ccc(N(C)C)cc1 (configuration not stated)
F

Next: `CCCCn1c(N)c(N(CCOC)C(=O)c2cccc(S(=O)(=O)N(C)c3ccccc3)c2)c(=O)[nH]c1=O`
F

Next: `COc1ccc(NC(=O)CN(C)C(=O)/C=C/c2cn(Cc3ccccc3)nc2-c2cccnc2)cc1`
F

====

System Under Test: Luciferin 4-monooxygenase (Photinus pyralis)
Assay: qHTS profiling assay for firefly luciferase inhibitor/activator using purifed enzyme and Km concentrations of substrates (counterscreen for miR-21 project); further: nearly all actives have a fitted effect of over 55% in size
Condition Set: purified FLuc, luminescence inhibition; series mostly up to 57.5 µM
Hit rate of the full screen: of about 360,000 compounds, about 25,000 (6.9%) were called active. Inconclusive results (about 9%) are left out. Calls follow the shape of the dose curve; as a rule, active = well fitted inhibition curve with a large enough effect; inconclusive = small, poorly fitted or top-dose-only effect; inactive = flat fitted curve, though single readings scatter. What follows is part of a selection rich in actives, with near analogues and random picks from the rest.
Please state which outcome applies, choosing from active, inactive

Call for entry CCOC(=O)c1c(NC(=O)c2ccc(S(=O)(=O)N3CCCC(C)C3)cc2)sc2c1CCN(C(C)C)C2 (configuration not stated) :
inactive

Next: `COc1ccc(NC(=O)CCNS(=O)(=O)c2ccc3c(c2)CCCC(=O)N3)cc1Cl`
inactive

Next: CCOC(=O)c1sc(NC(=O)C(CC)Sc2nccn2C)nc1C (configuration not stated)
inactive

Next: `CCCNC(=O)CCC(=O)N1Cc2ccccc2Oc2ncccc21`
inactive

Next: `COc1ccc(S(=O)(=O)/N=C2\C=C(NS(=O)(=O)c3ccccc3)C(=O)c3ccccc32)cc1`
active

====

System Under Test: Luciferin 4-monooxygenase (Photinus pyralis)
Assay: qHTS profiling assay for firefly luciferase inhibitor/activator using purifed enzyme and Km concentrations of substrates (counterscreen for miR-21 project); further: nearly all actives have a fitted effect of over 55% in size; further: potency means the concentration at half of the fitted maximal effect
Condition Set: purified FLuc, luminescence inhibition; series mostly up to 57.5 µM
In all, about 360,000 compounds went through this assay and about 25,000 (6.9%) were called active. Roughly 9% stayed inconclusive and do not appear here. The full list was thinned out, with actives kept by preference.
Measured Metric: Potency

COC(=O)c1ccc(NC(=O)c2ccccc2NS(=O)(=O)c2ccccc2)cc1 | 16.9 µM (active)
CCCNC(=O)Nc1ccccc1C(=O)Nc1ccc(OC)cc1 | inactive
O=C(Nc1ccc2c(c1)OCCO2)c1ccoc1 | 21.3 µM (active)
O=C(Nc1ccc2c(c1)OCCO2)c1cnccn1 | 12 µM (active)

Requested read-out: Potency. Entry: `CCOc1ccc(NC(=O)c2ccccc2NS(C)(=O)=O)cc1`
10.7 µM (active)

Next: `O=C(Nc1ccc2c(c1)OCO2)c1ccc(N2C(=O)c3ccccc3C2=O)cc1`
inactive
